- targetSystem: LXRβ (Homo sapiens, UniProt P55055)
- Sequence (P55055 whole entry): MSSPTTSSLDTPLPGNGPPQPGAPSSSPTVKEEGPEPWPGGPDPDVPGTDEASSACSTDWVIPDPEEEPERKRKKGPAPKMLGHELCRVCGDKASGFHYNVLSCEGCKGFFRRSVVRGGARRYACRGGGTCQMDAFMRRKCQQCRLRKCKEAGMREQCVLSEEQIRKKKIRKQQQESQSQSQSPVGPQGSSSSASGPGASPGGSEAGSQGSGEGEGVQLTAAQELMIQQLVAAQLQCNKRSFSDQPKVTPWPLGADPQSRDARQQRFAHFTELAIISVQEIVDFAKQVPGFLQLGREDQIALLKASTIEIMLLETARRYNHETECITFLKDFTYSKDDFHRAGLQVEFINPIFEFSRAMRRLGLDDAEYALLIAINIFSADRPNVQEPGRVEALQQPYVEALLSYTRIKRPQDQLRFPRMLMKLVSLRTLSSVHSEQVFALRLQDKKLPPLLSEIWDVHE
- Sequence (P19793 whole entry partner): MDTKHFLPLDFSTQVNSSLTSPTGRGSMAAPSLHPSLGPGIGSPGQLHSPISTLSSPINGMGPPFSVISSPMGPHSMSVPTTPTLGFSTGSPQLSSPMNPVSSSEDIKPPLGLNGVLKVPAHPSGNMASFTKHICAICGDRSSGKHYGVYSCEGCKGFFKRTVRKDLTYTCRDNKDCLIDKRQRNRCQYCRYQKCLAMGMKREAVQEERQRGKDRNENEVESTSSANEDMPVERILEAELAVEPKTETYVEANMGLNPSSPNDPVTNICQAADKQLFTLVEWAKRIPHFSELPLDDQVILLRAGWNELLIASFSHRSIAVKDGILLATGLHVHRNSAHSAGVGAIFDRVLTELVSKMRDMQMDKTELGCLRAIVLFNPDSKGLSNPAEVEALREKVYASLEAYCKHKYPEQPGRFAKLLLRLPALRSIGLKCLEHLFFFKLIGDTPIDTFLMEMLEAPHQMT
- assaySummary: Liver X receptor activity test, dual-luciferase reporter gene in HEK293T cells (pSG5/hLXRβ + hRXRα)
- assayConditions: inverse agonist activity, HEK293T reporter gene
As shown below, each of these molecules has a reported pIC50 value.
Just so you know, pIC50 here is -log10 of the concentration in molar units; reply with that number alone.

The reported value for CC(C)[C@@H]1N(C(=O)CC(C)(C)C)CC[C@@]12C(=O)N(c1cccc(-c3ccc4ccn(C)c4c3)c1)c1ccccc12 in terms of pIC50 is 5.00

Continue with the next molecule.
pIC50 in this record for CCOC(=O)c1ccc(CN(Cc2ccc(-c3cccc(S(C)(=O)=O)c3)cc2)S(=O)(=O)c2c(C)cc(C)cc2C)o1 [SR9238, reference compound] : 7.00
